B1: RTN2 (parent)
chain: SERPLEDLRLRLDHLGWVARGTGS

- Variants of: B1
- protocol-notes: protein stability index of a GFP-peptide fusion (GPS, HEK-293T) (PSI 1-6); higher = more stable;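 also: lentivirally expressed fusions sorted by FACS into six bins by GFP to DsRed ratio, PSI derived from sequencing read proportions per bin multiplied by bin number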
- experimental-setup: c terminus: a fixed tail appended
Records here are stratified by protein stability index; strata: LOW = under 2, MID = from 2 up to 3, HIGH = 3 and over

S24Q | MID
V18I | HIGH
E6Q | MID
L10F | HIGH
T22I | MID
T22F | LOW
E6T | LOW
P4L | LOW
G21P | MID
R3C | MID

Categorize the following entry: E2N
LOW

How about L10S ?
HIGH

How about D13T ?
MID
